assay: Cmax in rat at 3 mg/kg, po; format: ADME, organism-based; parameters: route oral, dose 3 mg/kg; conditions: in vivo
Quantity Name: Cmax (ng/mL)

A: COc1cc(C(C)C)c(Oc2cnc(NC(CO)CO)nc2N)cc1I
B: CC(C)Oc1ccc(Nc2nc(=O)n(CC(C)(C)C(=O)O)c(=O)n2Cc2ccc(Cl)cc2)cc1F
Incoming: For the pair A and B , which member has the lower Cmax number? Write down the label attached to your selection.
Outgoing: A

----------
experiment: Half life in rat at 0.5 mg/kg, iv or 1 mg/kg, po; assay type: ADME, organism-based; details: in vivo
Quantity Name: half-life (h)

Solved entries (count: 2):
Structure Smiles: CC(C)Oc1ccc(/N=c2\[nH]c(=O)n(CC(=O)O)c(=O)n2Cc2ccc(Cl)cc2)cc1Cl
Quantity Name: half-life
Test Result: 2.1

Structure Smiles: CC(C)Oc1ccc(Nc2nc(=O)c(CC(=O)O)cn2Cc2ccc(Cl)cc2)cc1Cl
Quantity Name: half-life
Test Result: 1.8

1: CC(C)Oc1ccc(Nc2nc(=O)n(CCC(=O)O)c(=O)n2Cc2ccc(Cl)cc2)cc1Cl
2: CC(C)Oc1ccc(Nc2cc(=O)n(CCC(=O)O)c(=O)n2Cc2ccc(Cl)cc2)cc1Cl
Incoming: For the pair 1 and 2 , which member has the lower half-life number? Write down the label attached to your selection.
Outgoing: 2
(2: 2.2 h, 1: 6 h)

----------
test: Oral bioavailability in rat at 3 mg/kg; assay type: ADME, organism-based; settings: in vivo
Quantity Name: bioavailability (%)

Structure Smiles: COc1cc(C(C)C)c(Oc2cnc(NC(CO)CO)nc2N)cc1I
Unit Name: %
bioavailability: 30.3

A: Cc1ccc(Cn2c(Nc3ccc(OC(C)C)c(Cl)c3)nc(=O)n(CCC(=O)O)c2=O)cc1
B: CC(C)Oc1ccc(Nc2nc(=O)n(CC(C)(C)C(=O)O)c(=O)n2Cc2ccc(Cl)cc2)cc1F
Incoming: For the pair A and B , which member has the lower bioavailability number? Write down the label attached to your selection.
Outgoing: B

----------
test: Microsomal stability in rat liver microsomes assessed as parent compound remaining incubated for 30 mins in presence or absence of NADPH generating system; type: ADME, Microsome; settings: read-out: Stabilty
Quantity Name: remaining at 0.5 h (%)

Solved entries (count: 4):
Structure Smiles: CCCn1c(=O)nc(Nc2ccc(OC(C)C)c(F)c2)n(Cc2ccc(Cl)cc2)c1=O
remaining at 0.5 h (%): 35
--
Structure Smiles: CC(C)Oc1ccc(Nc2nc(=O)[nH]c(=O)n2Cc2ccc(Cl)cc2)cc1F
remaining at 0.5 h (%): 54
--
Structure Smiles: CC(C)Oc1ccc(Nc2nc(=O)n(C(C)C)c(=O)n2Cc2ccc(Cl)cc2)cc1F
remaining at 0.5 h (%): 49
--
Structure Smiles: CC(C)Oc1ccc(Nc2nc(=O)n(CC(=O)O)c(=O)n2Cc2ccc(Cl)cc2)cc1F
remaining at 0.5 h (%): 97

1: CNC(=O)CCn1c(=O)nc(Nc2ccc(OC(C)C)c(F)c2)n(Cc2ccc(Cl)cc2)c1=O
2: CC(=O)NCCCn1c(=O)nc(Nc2ccc(OC(C)C)c(F)c2)n(Cc2ccc(Cl)cc2)c1=O
3: CC(C)Oc1ccc(Nc2nc(=O)n(CCCC(=O)O)c(=O)n2Cc2ccc(Cl)cc2)cc1F
4: CC(C)Oc1ccc(Nc2nc(=O)n(CCC(N)=O)c(=O)n2Cc2ccc(Cl)cc2)cc1F
Incoming: Place the items in sequence of falling remaining at 0.5 h. List each label, following the requested order.
Outgoing: 3, 4, 1, 2

----------
test: Microsomal stability in human liver microsomes assessed as parent compound remaining incubated for 30 mins in presence or absence of NADPH generating system; type: ADME, Microsome; conditions: read-out: Stabilty
Quantity Name: remaining at 0.5 h (%)

Solved entries (count: 5):
Structure Smiles: CC(C)Oc1ccc(Nc2nc(=O)n(CCC#N)c(=O)n2Cc2ccc(Cl)cc2)cc1F
Test Result: 59

Structure Smiles: CC(C)Oc1ccc(Nc2nc(=O)n(CCO)c(=O)n2Cc2ccc(Cl)cc2)cc1F
Test Result: 92

Structure Smiles: CC(C)Oc1ccc(Nc2nc(=O)n(CCCC(=O)O)c(=O)n2Cc2ccc(Cl)cc2)cc1F
Test Result: 106

Structure Smiles: CC(C)Oc1ccc(Nc2nc(=O)n(C(C)C)c(=O)n2Cc2ccc(Cl)cc2)cc1F
Test Result: 36

Structure Smiles: CC(=O)NCCCn1c(=O)nc(Nc2ccc(OC(C)C)c(F)c2)n(Cc2ccc(Cl)cc2)c1=O
Test Result: 47

1: CC(C)Oc1ccc(Nc2nc(=O)n(CC#N)c(=O)n2Cc2ccc(Cl)cc2)cc1F
2: CC(=O)NCCn1c(=O)nc(Nc2ccc(OC(C)C)c(F)c2)n(Cc2ccc(Cl)cc2)c1=O
3: CC(C)Oc1ccc(Nc2nc(=O)n(CC(=O)O)c(=O)n2Cc2ccc(Cl)cc2)cc1F
4: CC(C)Oc1ccc(Nc2nc(=O)n(Cc3ccccc3)c(=O)n2Cc2ccc(Cl)cc2)cc1F
Incoming: Place the items in sequence of falling remaining at 0.5 h. List each label, following the requested order.
Outgoing: 3, 1, 2, 4

----------
test: Clearance in rat at 0.5 mg/kg, iv or 1 mg/kg, po; format: ADME, organism-based; conditions: in vivo
Quantity Name: clearance (mL/min/kg)

Structure Smiles: CC(C)Oc1ccc(Nc2cc(=O)n(CCC(=O)O)c(=O)n2Cc2ccc(Cl)cc2)cc1Cl
Quantity Name: clearance
Unit Name: mL/min/kg
Test Result: 2.1

a: CC(C)Oc1ccc(Nc2nc(=O)n(CCC(=O)O)c(=O)n2Cc2ccc(Cl)cc2)cc1Cl
b: CC(C)Oc1ccc(Nc2nc(=O)n(C(C)C)c(=O)n2Cc2ccc(Cl)cc2)cc1
Incoming: Lab notebook, comparison: a versus b , higher clearance goes to which? Write down the label attached to your selection.
Outgoing: b

a: CC(C)Oc1ccc(/N=c2\[nH]c(=O)n(CC(=O)O)c(=O)n2Cc2ccc(Cl)cc2)cc1Cl
b: CC(C)Oc1ccc(Nc2nc(=O)c(CC(=O)O)cn2Cc2ccc(Cl)cc2)cc1Cl
Incoming: Lab notebook, comparison: a versus b , higher clearance goes to which? Write down the label attached to your selection.
Outgoing: b
(b: 8.3 mL/min/kg, a: 1.7 mL/min/kg)

----------
test: Microsomal stability in human liver microsomes assessed as parent compound remaining incubated for 30 mins in presence or absence of NADPH generating system; type: ADME, Microsome; conditions: read-out: Stabilty
Quantity Name: remaining at 0.5 h (%)

Structure Smiles: CCn1c(=O)nc(Nc2ccc(OC(C)C)c(F)c2)n(Cc2ccc(Cl)cc2)c1=O
Test Result: 86

Structure Smiles: CC(C)Oc1ccc(Nc2nc(=O)n(CCCO)c(=O)n2Cc2ccc(Cl)cc2)cc1F
Test Result: 82

Structure Smiles: CCCn1c(=O)nc(Nc2ccc(OC(C)C)c(F)c2)n(Cc2ccc(Cl)cc2)c1=O
Test Result: 36

a: CC(C)Oc1ccc(Nc2nc(=O)n(CCC(=O)O)c(=O)n2Cc2ccc(Cl)cc2)cc1F
b: CC(C)Oc1ccc(Nc2nc(=O)n(CCCCO)c(=O)n2Cc2ccc(Cl)cc2)cc1F
c: CC(=O)n1c(=O)nc(Nc2ccc(OC(C)C)c(F)c2)n(Cc2ccc(Cl)cc2)c1=O
Incoming: List by increasing remaining at 0.5 h. List each label, following the requested order.
Outgoing: c, b, a

----------
assay: Half life in rat at 1 mg/kg, iv or 3 mg/kg, po; assay type: ADME, organism-based; conditions: in vivo
Quantity Name: half-life (h)

a: CC(C)Oc1ccc(Nc2nc(=O)n(CC(C)(C)C(=O)O)c(=O)n2Cc2ccc(Cl)cc2)cc1F
b: Cc1ccc(Cn2c(Nc3ccc(OC(C)C)c(Cl)c3)nc(=O)n(CCC(=O)O)c2=O)cc1
c: COc1cc(C(C)C)c(Oc2cnc(NC(CO)CO)nc2N)cc1I
Incoming: Please list the entries, largest half-life first. List each label, following the requested order.
Outgoing: a, b, c
(a: 9.6 h, b: 1.6 h, c: 1.1 h)

----------
assay: Microsomal stability in rat liver microsomes assessed as parent compound remaining incubated for 30 mins in presence or absence of NADPH generating system; format: ADME, Microsome; settings: read-out: Stabilty
Quantity Name: remaining at 0.5 h (%)

Structure Smiles: CC(C)Oc1ccc(Nc2nc(=O)n(Cc3ccccc3)c(=O)n2Cc2ccc(Cl)cc2)cc1F
remaining at 0.5 h (%): 1

A: CC(C)Oc1ccc(Nc2nc(=O)n(CCO)c(=O)n2Cc2ccc(Cl)cc2)cc1F
B: CC(C)Oc1ccc(Nc2nc(=O)n(CCC(=O)O)c(=O)n2Cc2ccc(Cl)cc2)cc1F
C: CC(=O)NCCn1c(=O)nc(Nc2ccc(OC(C)C)c(F)c2)n(Cc2ccc(Cl)cc2)c1=O
D: CCn1c(=O)nc(Nc2ccc(OC(C)C)c(F)c2)n(Cc2ccc(Cl)cc2)c1=O
Incoming: Place the items in sequence of falling remaining at 0.5 h. List each label, following the requested order.
Outgoing: B, A, D, C
